Where do the numbers come from? From patent US20230079819A1.

Measured IC50 by item
System Name: BRG-1 (Homo sapiens)
Construct: made in house; host or cells: High Five insect cells
Sequence (P51532 whole entry): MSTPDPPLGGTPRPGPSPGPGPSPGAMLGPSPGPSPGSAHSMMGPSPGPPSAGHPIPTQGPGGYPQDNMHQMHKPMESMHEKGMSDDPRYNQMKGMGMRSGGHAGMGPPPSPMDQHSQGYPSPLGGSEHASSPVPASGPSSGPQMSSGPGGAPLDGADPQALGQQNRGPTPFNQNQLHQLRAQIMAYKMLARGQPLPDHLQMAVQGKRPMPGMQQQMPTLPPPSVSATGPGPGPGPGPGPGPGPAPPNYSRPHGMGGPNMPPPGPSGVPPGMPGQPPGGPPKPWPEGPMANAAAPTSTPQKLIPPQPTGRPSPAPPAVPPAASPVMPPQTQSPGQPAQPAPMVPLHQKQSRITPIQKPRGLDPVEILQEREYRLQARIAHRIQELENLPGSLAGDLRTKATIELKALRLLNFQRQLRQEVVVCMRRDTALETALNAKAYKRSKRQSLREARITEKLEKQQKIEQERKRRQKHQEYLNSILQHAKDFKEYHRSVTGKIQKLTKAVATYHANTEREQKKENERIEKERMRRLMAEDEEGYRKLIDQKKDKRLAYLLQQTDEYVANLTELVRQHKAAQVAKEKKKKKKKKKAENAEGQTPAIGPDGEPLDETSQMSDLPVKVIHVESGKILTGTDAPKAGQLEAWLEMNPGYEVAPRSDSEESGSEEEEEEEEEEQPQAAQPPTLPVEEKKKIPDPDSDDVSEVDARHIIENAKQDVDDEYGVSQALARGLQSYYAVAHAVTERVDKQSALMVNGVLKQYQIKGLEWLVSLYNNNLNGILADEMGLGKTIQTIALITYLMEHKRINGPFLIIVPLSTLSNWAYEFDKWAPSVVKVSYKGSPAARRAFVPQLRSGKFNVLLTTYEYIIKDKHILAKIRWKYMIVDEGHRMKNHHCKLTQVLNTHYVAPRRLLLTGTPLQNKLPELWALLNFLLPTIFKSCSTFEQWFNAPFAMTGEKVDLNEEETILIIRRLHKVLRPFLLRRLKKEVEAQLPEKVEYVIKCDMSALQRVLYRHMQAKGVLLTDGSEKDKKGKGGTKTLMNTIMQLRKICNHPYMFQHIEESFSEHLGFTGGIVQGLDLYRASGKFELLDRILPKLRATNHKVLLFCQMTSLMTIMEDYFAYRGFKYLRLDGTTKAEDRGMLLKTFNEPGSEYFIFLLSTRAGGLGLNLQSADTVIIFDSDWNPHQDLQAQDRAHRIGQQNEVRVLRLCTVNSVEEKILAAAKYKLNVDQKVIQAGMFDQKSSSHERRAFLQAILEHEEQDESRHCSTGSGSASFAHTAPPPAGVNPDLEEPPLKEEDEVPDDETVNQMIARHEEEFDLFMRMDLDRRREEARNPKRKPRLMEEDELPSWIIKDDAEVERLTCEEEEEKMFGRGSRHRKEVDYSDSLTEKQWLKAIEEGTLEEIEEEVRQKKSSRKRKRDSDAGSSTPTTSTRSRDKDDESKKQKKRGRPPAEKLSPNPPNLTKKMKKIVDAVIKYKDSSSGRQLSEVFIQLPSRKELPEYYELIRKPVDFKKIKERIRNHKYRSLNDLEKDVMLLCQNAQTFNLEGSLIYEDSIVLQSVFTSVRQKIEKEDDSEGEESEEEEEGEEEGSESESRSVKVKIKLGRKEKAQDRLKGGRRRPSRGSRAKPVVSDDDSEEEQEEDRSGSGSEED
Measurement Description: ATPase catalytic activity of BRG-1, ADP-Glo in vitro biochemical assay
Measurement Conditions: ATPase catalytic activity, 30 nM BRG-1, 400 μM ATP, read-out: BRG1 IP50 (μM)*

CC1(C)CN(c2cccc(-c3csc(NC(=O)CNC(=O)c4ccn(S(C)(=O)=O)c4)n3)c2)CC[C@@H]1O : > 0.01 µM

Measured IC50 of `CN(C(=O)c1cccc(-c2csc(NC(=O)CNC(=O)c3ccn(S(C)(=O)=O)c3)n2)c1)c1ccccc1` : > 1 µM

Measured IC50 of `CS(=O)(=O)n1ccc(C(=O)NCC(=O)Nc2nc(-c3cccc(COc4ccccn4)c3)cs2)c1` : > 0.01 µM

Measured IC50 of `CS(=O)(=O)n1ccc(C(=O)NCC(=O)Nc2nc(-c3cccc(N4CCC(F)(F)C4)c3)cs2)c1` : > 0.01 µM

Measured IC50 of `CS(=O)(=O)n1ccc(C(=O)NCC(=O)Nc2nc(-c3cccc(N4CCC(F)(F)CC4)c3)cs2)c1` : > 0.1 µM

Measured IC50 of `C[C@H]1CCCN(c2cccc(-c3csc(NC(=O)CNC(=O)c4ccn(S(C)(=O)=O)c4)n3)n2)C1` : > 0.01 µM

Measured IC50 of `CS(=O)(=O)n1ccc(C(=O)NCC(=O)Nc2nc(-c3ccc4c(c3)OCC4)cs2)c1` : > 0.01 µM

Measured IC50 of `CN1CCc2ccc(-c3csc(NC(=O)CNC(=O)c4ccn(C(C)(C)C)c4)n3)cc21` : > 0.01 µM
